Literature roundup of human GST-DYRK1A (Homo sapiens, UniProt Q13627) data, read-out IC50.

Use these answered entries as a reference point.
• Cc1n[nH]c2ncc(-c3cncc(N4CCC(F)(F)C4)n3)cc12 = > 1000 nM
• CNC(=O)c1cnc2[nH]cc(-c3cc(F)c4nccc(CCc5ccccc5)c4c3)c2c1 = < 10 nM
• COc1cc(P(C)(C)=O)ccc1Nc1nc(NCC(C)C)c2c(C#N)c[nH]c2n1 = 301 to 1000 nM

Report IC50 for each item below.
1. Cc1n[nH]c2ncc(-c3cncc(N4CCc5ccccc54)n3)cc12
2. CC[C@H](C)Nc1nc(Nc2ccc(S(C)(=O)=O)cc2OC)nc2[nH]ccc12

## Output
1: < 500 nM; 2: 301 to 1000 nM
